Conditions: BALB/c mice, oral gavage, 200 mg/kg (qd)
Measured parameter: observation (mortality)

Take a look at these entries with their results.
Molecule	Endpoint result
CCN1CCN(Cc2ccc(Nc3ncc(F)c(-c4cc(F)c5nc6n(c5c4)[C@H](C(C)C)COC6)n3)nc2)CC1 [Com. EX. 3b]	+
CCN1CCN(Cc2ccc(Nc3ncc(F)c(-c4cc(F)c5nc(C)n(C(C)C)c5c4)n3)nc2)CC1 [LY2835219, Abemaciclib]	−
CCN1CCN(Cc2ccc(Nc3ncc(F)c(-c4cc(F)c5nc6n(c5c4)C(C)COC6)n3)nc2)CC1 (single isomer, unassigned) [Compound 16b]	−
CC[C@@H]1COCc2nc3c(F)cc(-c4nc(Nc5ccc(CN6CCN(CC)CC6)cn5)ncc4F)cc3n21 [Com. EX. 4b]	+

Request: Supply reported observation (mortality) belonging to this molecule: CCN1CCN(Cc2ccc(Nc3ncc(F)c(-c4cc(F)c5nc6n(c5c4)C(C)CCC6)n3)nc2)CC1 (single isomer, unassigned) [Compound 2b]
Response: −
